biological target: human RORγ (Homo sapiens); construct: from Ser253 to Lys518 for human RORγ; expressed in transfected cells; host or cells: CHO cells (transient co-transfection with pG5-Luc); assay: In-vitro reporter gene assay for inhibitory activity against RORγ transcription, Test Method A (GAL4-hRORγ LBD / pG5-Luc in CHO cells); type: cell-based; conditions: luciferase reporter, 2 days
Sequence (P51449 253-518): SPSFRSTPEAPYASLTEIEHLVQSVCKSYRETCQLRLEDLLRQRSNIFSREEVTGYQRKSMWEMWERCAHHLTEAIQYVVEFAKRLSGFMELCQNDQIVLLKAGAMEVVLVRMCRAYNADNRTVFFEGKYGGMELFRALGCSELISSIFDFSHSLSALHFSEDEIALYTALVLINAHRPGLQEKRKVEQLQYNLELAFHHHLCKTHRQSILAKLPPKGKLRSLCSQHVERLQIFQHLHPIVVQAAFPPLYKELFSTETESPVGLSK
Grouping key: EC50. Bins: lower level = under 0.03 µM, middle level = from 0.03 µM up to 2 µM, upper level = 2 µM and over

- COMPOUND: "O=C(O)CCN1C=C2CCCCC2(c2ccc(OCCC3CCC3)c(Cl)c2)NC1=O (racemic)"
  CLASS LABEL: "middle level"
- COMPOUND: "CC(C)(C)CCc1ccc(C23COCCC2=CN(CCC(=O)O)C(=O)N3)cc1Cl (racemic)"
  CLASS LABEL: "middle level"
- COMPOUND: "CC(=O)N1CC2=CN(CCC(=O)O)C(=O)NC2(c2ccc(CCC(C)(C)C)c(Cl)c2)C1 (racemic)"
  CLASS LABEL: "upper level"
- COMPOUND: "CC(C)(C)CCc1ccc(C23CCC(C(F)(F)F)CC2=CN(C24CC(C(=O)O)(C2)C4)C(=O)N3)cc1Cl (single isomer, unassigned)"
  CLASS LABEL: "middle level"
- COMPOUND: "CC(C)(C)CCc1ccc(C23CCC(C)(C)C2=CN(CCC(=O)O)C(=O)N3)cc1Cl (single isomer, unassigned) [Example 3]"
  CLASS LABEL: "lower level"
- COMPOUND: "COC1CC[C@]2(c3ccc(CCC(C)(C)C)c(Cl)c3)NC(=O)N(CCC(=O)O)C=C2C1 (single isomer, unassigned)"
  CLASS LABEL: "upper level"
- COMPOUND: "CCOC(=O)CCN1C=C2C(CCNC)CCCC2(c2ccc(CCC(C)(C)C)c(Cl)c2)NC1=O (racemic)"
  CLASS LABEL: "upper level"
- COMPOUND: "CCOC(=O)CCN1C=C2C(CCN(C)C)CCCC2(c2ccc(CCC(C)(C)C)c(Cl)c2)NC1=O (racemic)"
  CLASS LABEL: "upper level"
- COMPOUND: "O=C(O)CCN1C=C2CCCCC2(c2ccc(OCC3(C(F)(F)F)CC3)c(Cl)c2)NC1=O (racemic)"
  CLASS LABEL: "middle level"
- COMPOUND: "CC(C)(C)CCc1ccc([C@@]23CCCC(C)(C)C2=CN(CCC(=O)O)C(=O)N3)cc1Cl (single isomer, unassigned)"
  CLASS LABEL: "lower level"
- COMPOUND: "CC(C)(C)CCc1ccc(C23CCC(C)(C)C2=CN(c2ccc(C(=O)O)cc2)C(=O)N3)cc1Cl (single isomer, unassigned)"
  CLASS LABEL: "lower level"
- COMPOUND: "CC(C)(C)CCc1ccc(C23COC(COC(C)(C)C)C2=CN(CCC(=O)O)C(=O)N3)cc1Cl (single isomer, unassigned) [Example 21]"
  CLASS LABEL: "upper level"
- COMPOUND: "CC(C)(C)CCc1ccc([C@]23CCC(C)(C)CC2=CN(CCC(=O)O)C(=O)N3)cc1Cl (single isomer, unassigned)"
  CLASS LABEL: "upper level"

----------
molecular target: mouse RORγ (Mus musculus, UniProt P51450); construct: from Ile251 to Lys516 for mouse RORγ; expressed in transfected cells; host or cells: CHO cells (transient co-transfection with pG5-Luc); assay: In-vitro reporter gene assay for inhibitory activity against RORγ transcription, Test Method A (GAL4-mRORγ LBD / pG5-Luc in CHO cells); type: cell-based; conditions: luciferase reporter, 2 days
Sequence (P51450 251-516): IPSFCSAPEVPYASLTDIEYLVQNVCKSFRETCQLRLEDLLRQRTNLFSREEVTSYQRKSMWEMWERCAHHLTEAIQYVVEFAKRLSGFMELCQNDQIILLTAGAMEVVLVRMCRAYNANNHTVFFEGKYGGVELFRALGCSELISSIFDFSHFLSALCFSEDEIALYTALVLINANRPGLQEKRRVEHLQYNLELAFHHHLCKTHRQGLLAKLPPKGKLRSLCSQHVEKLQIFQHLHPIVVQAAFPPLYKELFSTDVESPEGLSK

- COMPOUND: "CC1CCCC2(c3ccc(CCC(C)(C)C)c(Cl)c3)NC(=O)N(CCC(=O)O)C=C12 (racemic)"
  U: "µM"
  RESULT COMPARATOR: "="
  EC50: 0.021
- COMPOUND: "CC(C)(C)CCc1ccc([C@@]23CCC(C)(C)CC2=CN(CCC(=O)O)C(=O)N3)cc1Cl (single isomer, unassigned)"
  U: "µM"
  RESULT COMPARATOR: "="
  EC50: 0.018
- COMPOUND: "CN(C)CCC1CCC2(c3ccc(CCC(C)(C)C)c(Cl)c3)NC(=O)N(CCC(=O)O)C=C12 (single isomer, unassigned)"
  U: "µM"
  RESULT COMPARATOR: ">"
  EC50: 20

These measurements were taken from patent US20220119355A1.
